These data points were gathered from ChEMBL document CHEMBL1135029.

Overview of reported pIC50 across a group of molecules:
Biological target: UniProt P25929
Sequence (P25929 whole entry): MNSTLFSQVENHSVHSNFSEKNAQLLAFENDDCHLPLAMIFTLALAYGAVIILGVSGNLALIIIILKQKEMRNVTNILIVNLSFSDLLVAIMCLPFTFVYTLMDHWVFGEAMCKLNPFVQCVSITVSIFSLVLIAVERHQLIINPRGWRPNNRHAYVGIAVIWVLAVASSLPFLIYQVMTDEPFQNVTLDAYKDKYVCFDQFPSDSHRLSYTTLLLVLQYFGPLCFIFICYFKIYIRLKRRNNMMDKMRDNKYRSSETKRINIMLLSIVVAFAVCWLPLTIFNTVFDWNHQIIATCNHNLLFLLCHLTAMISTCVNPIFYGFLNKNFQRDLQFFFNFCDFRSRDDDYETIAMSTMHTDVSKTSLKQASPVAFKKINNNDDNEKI
Experiment: Inhibition of I-PYY binding to Nueopeptide Y1 receptor expressed in human neuroblastoma SK-N-MC cells
Type: cell-based
Scale: negative log10 of molar concentration, which is what pIC50 denotes.

Check out these entries, answers already filled in.
{"molecule": "COC(=O)C1=C(C)N=C(C)/C(=C(/O)OC)C1c1cccc(N/C(S)=N/CCCN2CCC(c3cccc(OC)c3)CC2)c1 (stereo not given)", "pIC50": 7.89}
{"molecule": "COC(=O)C1=C(C)N=C(C)/C(=C(/O)OC)C1c1cccc(NC(=O)NCCCN2CCN(C3CCCCC3)CC2)c1 (stereo not given)", "pIC50": 6.75}

Kindly consider the entry below.
Lookup result for COC(=O)C1=C(C)N=C(C)/C(=C(/O)OC)N1c1cccc(N/C(S)=N/CCCN2CCC(c3cccc(OC)c3)CC2)c1 ; measured pIC50: 6.02
